- Cond: mouse, in vivo, sc, 50 mg/kg
e = 2'-O-(2-methoxyethyl) (MOE); d = 2'-deoxy (DNA)
Listed here are substances together with their documented BUN.
Endpoint name: BUN (mg/dL)

ISIS 445513: 5-8-5 or 6-8-6 MOE microwalk gapmer (Table 44) (antisense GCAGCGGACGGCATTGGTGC; sugars from the 5' end e6 d8 e6, backbone and methylation of C not given here) | 27
ISIS 445498: 5-8-5 or 6-8-6 MOE microwalk gapmer (Table 44) (antisense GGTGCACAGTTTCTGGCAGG; sugars from the 5' end e6 d8 e6, backbone and methylation of C not given here) | 28
ISIS 445503: 5-8-5 or 6-8-6 MOE microwalk gapmer (Table 44) (antisense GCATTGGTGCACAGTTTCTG; sugars from the 5' end e6 d8 e6, backbone and methylation of C not given here) | 29
ISIS 445509: 5-8-5 or 6-8-6 MOE microwalk gapmer (Table 44) (antisense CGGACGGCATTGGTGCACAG; sugars from the 5' end e6 d8 e6, backbone and methylation of C not given here) | 29
ISIS 445505: 5-8-5 or 6-8-6 MOE microwalk gapmer (Table 44) (antisense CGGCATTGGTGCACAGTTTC; sugars from the 5' end e6 d8 e6, backbone and methylation of C not given here) | 29
ISIS 445504: 5-8-5 or 6-8-6 MOE microwalk gapmer (Table 44) (antisense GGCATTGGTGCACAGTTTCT; sugars from the 5' end e6 d8 e6, backbone and methylation of C not given here) | 29
ISIS 445532: 5-8-5 or 6-8-6 MOE microwalk gapmer (Table 44) (antisense CGGCATTGGTGCACAGTT; sugars from the 5' end e5 d8 e5, backbone and methylation of C not given here) | 23
ISIS 445530: 5-8-5 or 6-8-6 MOE microwalk gapmer (Table 44) (antisense GCATTGGTGCACAGTTTC; sugars from the 5' end e5 d8 e5, backbone and methylation of C not given here) | 26

* * *

Listed here are substances together with their documented RBC count.
- Procedure details: Hematology assays in cynomolgus monkeys (Example 45)
- Type: in vivo
- Cond: day 57; escalating dose regimen
Endpoint name: RBC count

ISIS 416858: MOE gapmer, nucleobases 1275 to 1318 of SEQ ID NO: 1 (Table 8) (antisense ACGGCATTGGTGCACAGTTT; MOE gapmer, wing and gap sizes not given here) | 5.6e+06 µL⁻¹
ISIS 416864: MOE gapmer, nucleobases 1275 to 1318 of SEQ ID NO: 1 (Table 8) (antisense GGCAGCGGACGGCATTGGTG; MOE gapmer, wing and gap sizes not given here) | 5.5e+06 µL⁻¹
ISIS 416838: MOE gapmer, nucleobases 1018 to 1042 of SEQ ID NO: 1 (Table 6) (antisense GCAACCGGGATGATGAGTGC; MOE gapmer, wing and gap sizes not given here) | 5.5e+06 µL⁻¹
ISIS 417002: MOE gapmer, nucleobases 1275 to 1318 of SEQ ID NO: 1 (Table 8) (antisense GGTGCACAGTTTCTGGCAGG; MOE gapmer, wing and gap sizes not given here) | 4.9e+06 µL⁻¹
ISIS 416850: MOE gapmer, nucleobases 1275 to 1318 of SEQ ID NO: 1 (Table 8) (antisense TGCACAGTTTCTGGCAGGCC; MOE gapmer, wing and gap sizes not given here) | 5.2e+06 µL⁻¹

Where these numbers come from: patent US20230263822A1
